- target.or.system: HLA-A02.01 (human)
- measurement.notes: pMHC-I complex dissociation at 37 C, 125I-b2m, half-life
observed.property: Stability (T1/2 (h))
The reply should contain only the number, in h.

Query block: Answer with reported Stability (T1/2 (h)) of PLNDLLLEM (also called ESR1, Y537N)
Result block: 4.2

Query block: Answer with reported Stability (T1/2 (h)) of LMELMAGGDL (also called ALK, L1196M)
Result block: 8.9

New cases:
Query block: Answer with reported Stability (T1/2 (h)) of QLQDKFEHL (also called EGFR: SEPT14)
Result block: 0.6
